Here the recorded LogAUC is given for each entry.
- tgt: CH505.M5D8gp120293F
- protocol.description: ELISA
Response field accepts a number only; no unit should be typed.

Here's what some known entries look like.
1) CH556 (antibody, V domains shown, also called CH235.11) VH: QVQLVQSGGTVKSPGTSVTLSCKTSGYNFIDYYIHWVRRAPGQRPELMGYIDPSHGRPDYEGKFRDRISLYRDTSTSVVYMDVRGLRLDDTALYYCVRGGGVEVSSNHYDHWGPGTMVFVSP VL: ETTLTQSPDTLSASPGERVTLSCRAAQSVGSQVAWFRHIRGQPPRLLISGASTRAAGVPARFSGSGSGTDFTLTISGMQSEDFAEYFCQQYHMWWTFGQGTRVDKN	1.26
2) CH236 (antibody, V domains shown, also called CH236_4A/293i) VH: QVQLVQSGAAVKRPGASVTISCRASGYTFTTYYIHWVRQAPGQRLELMGMIDPSRGRTDYAQKFQGRVTMSRDTSTSTLYMELRSLRPDDTALYYCVRNVGTEGSLLHYDYWGQGTLVTVSS VL: EIVLTQSPATLSVSPGERVTLSCRASQSVRNNLAWYRQKRGQAPRLLIYGASTRATGIPARFSGSGSGTEFTLTISSMQSEDFAVYYCQQYNNWWTFGQGTKVEIK	7.27
3) CH241 (antibody, V domains shown) VH: QVQLVQSGAAVKKPGASVRVSCKASGYTFTSSHIHWVRQAPGQGPEWMGMIDPSVGRPTTAGKFQGRVTMTRDRYTSTAYMDLSSLRSEDTAVYYCARSVETTGSLLYFDYWGQGTLITVSS VL: EIVLTQSPATLSVSPGERATLSCRASQSVRSNIAWYQQKPGQAPRLLIHGASTRATGIPGRFSGSGSGPEFTLAISSVQSEDFAVYYCQQYNDWWTFGQGTKVEIK	14.5

// next item, LogAUC requested
Exam item: Fill in: LogAUC of CH491 (antibody, V domains shown, also called CH235.7; DH491) VH: QVQLVQSGAAVKRPGASVTISCRASGYTFTTYYIHWVRQAPGQGLELMGWINPRGGRTDYSYRFEDRVSMYRDTSMSIVYMDLRNLKSADTAVYYCVRNVGTSGSLLHYDFWGQGSLVTVSS VL: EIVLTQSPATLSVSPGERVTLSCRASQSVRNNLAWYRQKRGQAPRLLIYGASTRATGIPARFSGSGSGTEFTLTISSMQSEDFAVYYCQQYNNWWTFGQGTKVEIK is ___
Marked response: 10.6
